target: Volume Regulated Anion Channel (VRAC) (Homo sapiens); construct: endogenous in cells; assay: Volume Regulated Anion Channel (VRAC) effect, whole cell patch clamp in HEK293 cells; settings: VRAC activated by swelling in hypotonic (75% tonicity) extracellular solution, read-out: KD value (time dependent block of VRAC current)
Sequence (Q8IWT6 whole entry): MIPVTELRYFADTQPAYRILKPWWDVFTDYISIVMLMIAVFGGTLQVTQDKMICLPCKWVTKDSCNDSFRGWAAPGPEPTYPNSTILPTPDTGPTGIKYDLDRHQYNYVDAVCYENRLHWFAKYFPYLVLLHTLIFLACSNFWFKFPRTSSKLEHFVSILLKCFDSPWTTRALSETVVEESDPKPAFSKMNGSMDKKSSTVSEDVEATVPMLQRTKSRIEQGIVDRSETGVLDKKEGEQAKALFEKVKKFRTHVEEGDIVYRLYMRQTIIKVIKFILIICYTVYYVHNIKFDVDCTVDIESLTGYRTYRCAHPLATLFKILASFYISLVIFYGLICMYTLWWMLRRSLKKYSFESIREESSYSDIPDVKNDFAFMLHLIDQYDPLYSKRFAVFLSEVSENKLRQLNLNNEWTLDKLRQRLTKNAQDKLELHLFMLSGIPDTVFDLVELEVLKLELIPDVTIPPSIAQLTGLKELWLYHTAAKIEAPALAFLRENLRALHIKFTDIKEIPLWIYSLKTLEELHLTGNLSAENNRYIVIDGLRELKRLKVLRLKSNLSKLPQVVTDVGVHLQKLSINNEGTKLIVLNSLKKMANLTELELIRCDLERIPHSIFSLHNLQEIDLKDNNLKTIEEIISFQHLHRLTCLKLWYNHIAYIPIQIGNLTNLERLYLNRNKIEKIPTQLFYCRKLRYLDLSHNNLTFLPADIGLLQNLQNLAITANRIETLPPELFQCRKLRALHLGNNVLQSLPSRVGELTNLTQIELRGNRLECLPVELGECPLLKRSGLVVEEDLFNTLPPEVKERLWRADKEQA
Observation type: pKd
By convention, pKd is the negative base-10 log of a molar concentration.

Exercise: Tell me measured pKd for O=C(Nc1cc(F)cc(F)c1)Nc1ccc(-c2ccc(C(F)(F)F)cc2)cc1-c1noc(=O)[nH]1 please.
Solution: 6.64

# credit: patent US7985761B2
